The measurements presented in this section are drawn from ChEMBL document CHEMBL3864167.

IC50 overview
# study.target: Voltage-dependent T-type calcium channel subunit alpha-1G (Homo sapiens)
# Sequence (O43497 whole entry): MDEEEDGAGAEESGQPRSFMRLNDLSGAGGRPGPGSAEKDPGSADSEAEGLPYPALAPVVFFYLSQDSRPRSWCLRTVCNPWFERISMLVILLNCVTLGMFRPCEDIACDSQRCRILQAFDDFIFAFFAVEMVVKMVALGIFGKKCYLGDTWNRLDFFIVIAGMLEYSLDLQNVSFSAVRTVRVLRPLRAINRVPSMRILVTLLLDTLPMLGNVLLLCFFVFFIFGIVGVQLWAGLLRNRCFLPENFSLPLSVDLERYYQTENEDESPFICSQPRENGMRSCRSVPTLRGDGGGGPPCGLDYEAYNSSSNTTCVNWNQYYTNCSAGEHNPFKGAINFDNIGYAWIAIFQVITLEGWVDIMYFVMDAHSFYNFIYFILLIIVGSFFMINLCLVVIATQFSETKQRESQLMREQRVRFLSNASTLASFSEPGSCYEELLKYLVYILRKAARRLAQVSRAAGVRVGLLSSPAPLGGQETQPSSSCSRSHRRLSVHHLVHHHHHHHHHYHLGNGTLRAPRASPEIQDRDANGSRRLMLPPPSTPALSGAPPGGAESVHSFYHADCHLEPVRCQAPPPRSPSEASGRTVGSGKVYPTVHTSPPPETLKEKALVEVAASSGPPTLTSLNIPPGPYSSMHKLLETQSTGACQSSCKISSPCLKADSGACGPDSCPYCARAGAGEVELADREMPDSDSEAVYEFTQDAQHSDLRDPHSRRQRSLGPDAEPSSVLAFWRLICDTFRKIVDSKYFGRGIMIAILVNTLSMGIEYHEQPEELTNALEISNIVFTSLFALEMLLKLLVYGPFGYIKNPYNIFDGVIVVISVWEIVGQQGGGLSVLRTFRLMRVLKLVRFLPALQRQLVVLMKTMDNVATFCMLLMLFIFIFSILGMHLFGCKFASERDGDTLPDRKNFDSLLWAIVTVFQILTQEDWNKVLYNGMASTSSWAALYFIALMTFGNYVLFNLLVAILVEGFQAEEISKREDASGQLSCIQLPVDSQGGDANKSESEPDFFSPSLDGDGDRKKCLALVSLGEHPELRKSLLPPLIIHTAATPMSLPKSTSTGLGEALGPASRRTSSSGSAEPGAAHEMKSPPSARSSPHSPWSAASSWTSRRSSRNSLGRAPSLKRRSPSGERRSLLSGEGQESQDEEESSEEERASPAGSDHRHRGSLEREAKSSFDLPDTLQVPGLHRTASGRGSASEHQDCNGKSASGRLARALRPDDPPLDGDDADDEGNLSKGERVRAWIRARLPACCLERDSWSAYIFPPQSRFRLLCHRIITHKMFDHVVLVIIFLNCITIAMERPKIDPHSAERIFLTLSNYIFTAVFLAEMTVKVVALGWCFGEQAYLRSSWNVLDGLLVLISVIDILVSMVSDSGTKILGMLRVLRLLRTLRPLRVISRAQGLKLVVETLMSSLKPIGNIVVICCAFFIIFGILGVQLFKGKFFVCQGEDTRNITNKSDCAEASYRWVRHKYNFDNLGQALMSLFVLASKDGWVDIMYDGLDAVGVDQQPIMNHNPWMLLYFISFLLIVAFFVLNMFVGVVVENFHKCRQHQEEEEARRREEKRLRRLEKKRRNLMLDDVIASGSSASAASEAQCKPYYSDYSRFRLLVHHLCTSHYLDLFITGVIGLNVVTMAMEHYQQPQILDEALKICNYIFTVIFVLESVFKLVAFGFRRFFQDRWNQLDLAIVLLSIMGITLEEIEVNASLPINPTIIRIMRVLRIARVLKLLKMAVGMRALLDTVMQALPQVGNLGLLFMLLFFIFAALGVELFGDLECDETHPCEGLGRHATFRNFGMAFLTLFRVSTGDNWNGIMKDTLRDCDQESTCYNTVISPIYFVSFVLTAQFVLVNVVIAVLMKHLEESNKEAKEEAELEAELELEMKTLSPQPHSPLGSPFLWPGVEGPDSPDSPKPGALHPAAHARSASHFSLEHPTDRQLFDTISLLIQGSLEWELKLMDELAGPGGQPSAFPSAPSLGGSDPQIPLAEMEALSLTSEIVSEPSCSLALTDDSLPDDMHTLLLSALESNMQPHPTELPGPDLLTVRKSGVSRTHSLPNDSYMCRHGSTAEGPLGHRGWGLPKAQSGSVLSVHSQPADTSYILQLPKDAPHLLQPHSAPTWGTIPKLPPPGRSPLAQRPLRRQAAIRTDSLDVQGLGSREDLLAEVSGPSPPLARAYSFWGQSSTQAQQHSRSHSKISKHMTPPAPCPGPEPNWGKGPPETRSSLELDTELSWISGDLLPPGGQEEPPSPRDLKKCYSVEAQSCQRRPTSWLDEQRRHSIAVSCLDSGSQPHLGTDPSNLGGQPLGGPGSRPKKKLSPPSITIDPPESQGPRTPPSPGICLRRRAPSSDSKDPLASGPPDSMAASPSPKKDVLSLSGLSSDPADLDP
# protocol.text: Channel blocking activity at recombinant human CaV 3.1 channel expressed in HEK293 cells assessed as inhibition of Ca2+ flux preincubated for 3 mins followed by CaCl2 addition by fluo-4 dye-based FLIPR assay
measurement.label: IC50 (nM)

INSERT INTO assay_data (compound, study_target, qualifier, reported) VALUES
  ('C[C@@H]1CN(Cc2ccccc2)c2cnccc2[C@H](C)N1C(=O)NCc1ccccc1', 'Voltage-dependent T-type calcium channel subunit alpha-1G (Homo sapiens)', '=', 138),
  ('[2H]C([2H])(c1ccccc1)N1C[C@@H](C)N(C(=O)Nc2cccnc2)[C@@H](C)c2ccncc21 (racemic)', 'Voltage-dependent T-type calcium channel subunit alpha-1G (Homo sapiens)', '=', 441),
  ('C[C@@H]1CN(Cc2ccccc2)c2cncc(F)c2[C@H](C)N1C(=O)NCc1ccccc1 (racemic)', 'Voltage-dependent T-type calcium channel subunit alpha-1G (Homo sapiens)', '=', 140),
  ('COc1cc2c(cc1F)N(Cc1ccccc1)C[C@@H](C)N(C(=O)Nc1cccnc1)[C@H]2C (racemic)', 'Voltage-dependent T-type calcium channel subunit alpha-1G (Homo sapiens)', '=', 370),
  ('C[C@@H]1CN(Cc2ccccn2)c2ccccc2[C@H](C)N1C(=O)NCc1ccccc1 (racemic)', 'Voltage-dependent T-type calcium channel subunit alpha-1G (Homo sapiens)', '=', 605),
  ('C[C@@H]1CN(Cc2ccccc2F)c2cnccc2[C@H](C)N1C(=O)NCc1ccccc1 (racemic)', 'Voltage-dependent T-type calcium channel subunit alpha-1G (Homo sapiens)', '=', 47),
  ('C[C@@H]1CN(Cc2ccccc2)c2cc(OCC(F)(F)F)ccc2[C@H](C)N1C(=O)Nc1cccnc1 (racemic)', 'Voltage-dependent T-type calcium channel subunit alpha-1G (Homo sapiens)', '=', 187),
  ('C[C@@H]1CN(Cc2ccccc2)c2ccccc2[C@H](C)N1S(=O)(=O)c1cn(C)cn1 (racemic)', 'Voltage-dependent T-type calcium channel subunit alpha-1G (Homo sapiens)', '=', 576),
  ('CC(C)CCN1C[C@@H](C)N(C(=O)Nc2cccnc2)[C@@H](C)c2ccccc21 (racemic)', 'Voltage-dependent T-type calcium channel subunit alpha-1G (Homo sapiens)', '=', 23),
  ('[2H]C([2H])(c1ccccc1)N1C[C@@H](C)N(C(=O)NCc2ccccc2)[C@@H](C)c2ccncc21 (racemic)', 'Voltage-dependent T-type calcium channel subunit alpha-1G (Homo sapiens)', '=', 260),
  ('C[C@@H]1CN(Cc2ccccc2)c2cncnc2[C@H](C)N1C(=O)NCc1ccccc1 (racemic)', 'Voltage-dependent T-type calcium channel subunit alpha-1G (Homo sapiens)', '>', 8500),
  ('C[C@@H]1CN(Cc2ccccc2)c2nnccc2[C@H](C)N1C(=O)NCc1ccccc1 (racemic)', 'Voltage-dependent T-type calcium channel subunit alpha-1G (Homo sapiens)', '=', 1140),
  ('C[C@@H]1CN(C(=O)c2ccccc2)c2ccccc2[C@H](C)N1C(=O)NCc1ccccc1 (racemic)', 'Voltage-dependent T-type calcium channel subunit alpha-1G (Homo sapiens)', '=', 6070),
  ('C[C@@H]1CNc2ccccc2[C@H](C)N1C(=O)NCc1ccccc1 (racemic)', 'Voltage-dependent T-type calcium channel subunit alpha-1G (Homo sapiens)', '>', 10000),
  ('C[C@@H]1CN(Cc2ccccc2)c2ccccc2[C@H](C)N1C(=O)NC1COC1 (racemic)', 'Voltage-dependent T-type calcium channel subunit alpha-1G (Homo sapiens)', '=', 26),
  ('O=C(NCc1ccccc1)N1CCN(Cc2ccccc2)c2ccccc2C1', 'Voltage-dependent T-type calcium channel subunit alpha-1G (Homo sapiens)', '=', 305),
  ('C[C@@H]1CN(Cc2ccccc2)c2ccccc2[C@H](C)N1C(=O)NCc1ccccc1 (racemic)', 'Voltage-dependent T-type calcium channel subunit alpha-1G (Homo sapiens)', '=', 17);
